Provenance of the data: patent US20140121407A1

- Run description: In vivo kinetic parameters in mouse after oral administration (plasma, LC/MS)
- Test conditions: mouse, 3.6 mg/kg; Administration of Y616, 3.60 mg/kg (9.4 μmol/kg) oral, ddY male mice, plasma; label = analyte measured

{"Compound": "[2H]C([2H])(C(=O)O)C([2H])([2H])c1ccc(C(=O)Nc2ccc3c(c2)C(C)(C)CCC3(C)C)cc1 [Example Y616]", "Cmax (nM)": 1370}
{"Compound": "CC1(C)CCC(C)(C)c2cc(NC(=O)c3ccc(C(=O)O)cc3)ccc21 [Am80]", "Cmax (nM)": 930}

###

- Run description: In vivo kinetic parameters in mouse after oral administration (plasma, LC/MS)
- Test conditions: mouse; Administration of M700, 3.56 mg/kg (9.4 μmol/kg) oral, ddY male mice, plasma; label = analyte measured; read-out: t½ (converted)
Catalogue of half-life values

{"Molecule": "CC1(C)CCC(C)(C)c2cc(NC(=O)c3ccc(C(O)CC(=O)O)cc3)ccc21 (stereo not drawn)", "half-life, min": 25.8}
{"Molecule": "CC1(C)CCC(C)(C)c2cc(NC(=O)c3ccc(C(=O)O)cc3)ccc21", "half-life, min": 73.2}
{"Molecule": "CC1(C)CCC(C)(C)c2cc(NC(=O)c3ccc(CCC(=O)O)cc3)ccc21", "half-life, min": 28.2}

###

- Run description: In vivo kinetic parameters in mouse after oral administration (plasma, LC/MS)
- Test conditions: mouse, 3.6 mg/kg; Administration of Y616, 3.60 mg/kg (9.4 μmol/kg) oral, ddY male mice, plasma; label = analyte measured; read-out: t½ (converted)
Experimental endpoint: half-life (h)

{"Molecule": "[2H]C([2H])(C(=O)O)C([2H])([2H])c1ccc(C(=O)Nc2ccc3c(c2)C(C)(C)CCC3(C)C)cc1 [Example Y616]", "Unit abbrev": "h", "Quantitative readout": 0.83}
{"Molecule": "CC1(C)CCC(C)(C)c2cc(NC(=O)c3ccc(C(=O)O)cc3)ccc21 [Am80]", "Unit abbrev": "h", "Quantitative readout": 2.21}

###

- Run description: In vivo kinetic parameters in mouse after oral administration (plasma, LC/MS)
- Test conditions: mouse, 3.3 mg/kg; Administration of AM80, 3.30 mg/kg (9.4 μmol/kg) oral, ddY male mice, plasma

{"Smiles structure": "CC1(C)CCC(C)(C)c2cc(NC(=O)c3ccc(C(=O)O)cc3)ccc21", "Cmax [nM]": 1870}

###

- Run description: In vivo kinetic parameters in mouse after oral administration (plasma, LC/MS)
- Test conditions: mouse; Administration of M700, 3.56 mg/kg (9.4 μmol/kg) oral, ddY male mice, plasma; label = analyte measured; read-out: Tmax
Catalogue of Tmax values
Experimental endpoint: Tmax (min)

{"Compound": "CC1(C)CCC(C)(C)c2cc(NC(=O)c3ccc(CCC(=O)O)cc3)ccc21", "Experimental endpoint": "Tmax", "Quantitative readout": 30}
{"Compound": "CC1(C)CCC(C)(C)c2cc(NC(=O)c3ccc(C(O)CC(=O)O)cc3)ccc21 (stereo not drawn)", "Experimental endpoint": "Tmax", "Quantitative readout": 30}
{"Compound": "CC1(C)CCC(C)(C)c2cc(NC(=O)c3ccc(C(=O)O)cc3)ccc21", "Experimental endpoint": "Tmax", "Quantitative readout": 60}
